- target-or-test-system: T1, Extracellular domain of cyno PD1 (cPD1-ECD) (Macaca fascicularis (cynomolgus))
- T1 construct: Expressed with a hexahistidine tag or as Fc fusion; also called cynoPD1-ECD; cynoPD-1-ECD
- T1 chain: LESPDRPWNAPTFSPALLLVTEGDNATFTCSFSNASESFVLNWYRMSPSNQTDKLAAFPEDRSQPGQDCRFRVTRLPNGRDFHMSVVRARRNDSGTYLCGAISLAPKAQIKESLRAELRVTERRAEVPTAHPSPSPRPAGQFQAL
- experiment-summary: SPR ProteOn, cynoPD1-ECD; RANGE low replicate
pKd: −log10 of the molar value.
quantity-kind: pKd

* PD1B11 (antibody, V domains shown, Tested as IgG2sigma/kappa; also called PD1H3/PH9L3) VH: QVQLVQSGAEVKKPGSSVKVSCKASGGTFSSYAISWVRQAPGQGLEWMGGIIPIFGTANYAQKFQGRVTITADESTSTAYMELSSLRSEDTAVYYCARPGLAAAYDTGSLDYWGQGTLVTVSS VL: EIVLTQSPATLSLSPGERATLSCRASQSVSSYLAWYQQKPGQAPRLLIYDASNRATGIPARFSGSGSGTDFTLTISSLEPEDFAVYYCQQRSNWPLTFGQGTKVEIK | 7.56
* PD1B149 (antibody, human IgG2, kappa, V domains shown, IgG2sigma/kappa; VH 41, VL 50; also called PD1H24/PD1L128) VH: QVQLVQSGAEVKKPGSSVKVSCKASGGTFSSYAISWVRQAPGQGLEWMGGIIPIFGTANYAQKFQGRVTITADESTSTAYMELSSLRSEDTAVYYCARPGLAAAYDTGNLDYWGQGTLVTVSS VL: EIVLTQSPATLSLSPGERATLSCRASQSVRNYLAWYQQKPGQAPRLLIHDASNRATGIPARFSGSGSGTDFTLTISSLEPEDFAVYYCQQRNYWPLTFGQGTKVEIKR | 7.96
* PD1B160 (antibody, human IgG2, kappa, V domains shown, IgG2sigma/kappa; VH 42, VL 51; also called PD1H131/PD1L101) VH: QVQLVQSGAEVKKPGSSVKVSCKASGGTFSSYAISWVRQAPGQGLEWMGGIIPIFDTANYAQKFQGRVTITADESTSTAYMELSSLRSEDTAVYYCARPGLAAAYDTGNLDYWGQGTLVTVSS VL: EIVLTQSPATLSLSPGERATLSCRASQSVDSYLAWYQQKPGQAPRLLIKDASDRATGIPARFSGSGSGTDFTLTISSLEPEDFAVYYCQQRGNWPLTFGQGTKVEIKR | 8.29
